Assayed target: GRID2IP_2, A4D2P6
Sequence (A4D2P6 272-370): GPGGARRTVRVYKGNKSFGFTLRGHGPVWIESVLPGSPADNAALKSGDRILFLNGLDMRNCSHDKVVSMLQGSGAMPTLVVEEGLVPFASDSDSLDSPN
Method description: holdup assay
Parameters: key: below the threshold = too weak to quantify, mostly under pKd 3.1 to 4
Measurement parameters: plain residues with an end cap or a label only (N-terminal biotin on a linker: ado-ado)
Reported metric: pKd

// solved cases for pKd follow
{"Binder": "NISYRRESAI [KCNJ4, P48050]", "Reported metric": "pKd", "Result": 3.51}
{"Binder": "SLNANEVEWF [RNF130, Q86XS8]", "Reported metric": "pKd", "Result": "below the threshold"}
{"Binder": "QSYPSKHDYV [CLDN18, P56856]", "Reported metric": "pKd", "Result": "below the threshold"}
{"Binder": "EPQYQPGENL [SRC, P12931]", "Reported metric": "pKd", "Result": "below the threshold"}

We now examine a further binder.
Query: Reported pKd, binder PYSESDDDWC [CACNA1A, O00555] : ____
Reply: below the threshold
